- test.description: Effective concentration required for antiviral activity against HIV-1 1002-60 in PBMC cells
- Assay type: functional, cell-based
- condition.description: Homo sapiens
pEC50: −log10 of the molar value.
readout.kind: pEC50

{"compound": "Cc1cc(SC2=C(O)O[C@](CCc3ccc(O)cc3)(C(C)C)CC2=O)c(C(C)(C)C)cc1N (stereo in doubt; 1S)", "pEC50": 6.13}

1 = Cc1cc(SC2=C(O)OC(CCc3ccc(O)cc3)(C(C)C)CC2=O)c(C(C)(C)C)cc1OS(C)(=O)=O (centres undefined)
2 = CC(C)(C)NC(=O)[C@@H]1C[C@@H]2CCCC[C@@H]2CN1C[C@@H](O)[C@H](Cc1ccccc1)NC(=O)[C@H](CC(N)=O)NC(=O)c1ccc2ccccc2n1
3 = Cc1cc(SC2=C(O)OC(CCc3ccccc3)(C(C)C)CC2=O)c(C(C)(C)C)cc1NS(=O)(=O)c1ccc(C(F)(F)F)cn1 (centres undefined)
Provide the items ranked by increasing pEC50. A ranking is expressed here by listing the labels in the requested order.
2, 1, 3
